Form field: log10 of IC50 (one value per entry).
# ASSAY_SYSTEM: PI3K alfa (Homo sapiens)
# Construct: p85(iSH2) fusion partner (same polypeptide; see partner chain) (N); 12x Gly linker (N); His tag (C); Tn5 (Trichoplusia ni) or TiniPro insect cells
# PROTOCOL_DESCRIPTION: PI3K alfa enzymatic assay (Kinase-Glo luminescence)
# CONDITION_DESCRIPTION: Enzymatic Data
# values: log10(IC50), units nM

Below, 5 compounds whose answers are already recorded.
>  <COMPOUND_STRUCTURE>
COc1ccc(-c2ccc3nc(C)c(-c4ccnc(NCc5ccccc5)n4)n3n2)cc1OC

>  <log10 of IC50>
3.33

$$$$
>  <COMPOUND_STRUCTURE>
COc1cc(-c2ccc3nc(C)c(-c4cnc(N)c(C(F)(F)F)c4)n3n2)ccc1OCCNC(=O)Nc1cccnc1

>  <log10 of IC50>
1.45

$$$$
>  <COMPOUND_STRUCTURE>
COc1ccc(-c2ccc3nc(C)c(-c4ccc(C#N)nc4)n3n2)cc1OC

>  <log10 of IC50>
1.64

$$$$
>  <COMPOUND_STRUCTURE>
COc1ccc(-c2ccc3nc(C)c(-c4ccnc(-n5ccnc5)n4)n3n2)cc1OC

>  <log10 of IC50>
2.44

$$$$
>  <COMPOUND_STRUCTURE>
COc1ccc(-c2ccc3nc(C)c(-c4ccc(F)nc4)n3n2)cc1OC

>  <log10 of IC50>
2.31

$$$$

Which log10 of IC50 is reported for this compound? "COc1cc(-c2ccc3nc(C)c(-c4cnc(N)c(C(F)(F)F)c4)n3n2)ccc1OCCNC(=O)c1cc(OC)c(OC)c(OC)c1"
2.47

Quick one: "COc1ccc(-c2ccc3nc(C)c(-c4ccc(N5CCOCC5)nc4)n3n2)cc1OC"
2.05

Item: "COc1cc(-c2ccc3nc(C)c(-c4cnc(N)c(C(F)(F)F)c4)n3n2)ccc1OCCCN1CCCC1=O"
1.88

Param item: "COc1ccc(-c2ccc3nc(C)c(-c4cnc(N)c(C(F)(F)F)c4)n3n2)cc1OC"
0.77

###

# ASSAY_SYSTEM: PI3K alfa (Homo sapiens, UniProt P42336)
# Construct: p85(iSH2) fusion partner (same polypeptide; see partner chain) (N); 12x Gly linker (N); His tag (C); Tn5 (Trichoplusia ni) or TiniPro insect cells
# Sequence (P42336 with tags, fused parts or gaps limits assumed): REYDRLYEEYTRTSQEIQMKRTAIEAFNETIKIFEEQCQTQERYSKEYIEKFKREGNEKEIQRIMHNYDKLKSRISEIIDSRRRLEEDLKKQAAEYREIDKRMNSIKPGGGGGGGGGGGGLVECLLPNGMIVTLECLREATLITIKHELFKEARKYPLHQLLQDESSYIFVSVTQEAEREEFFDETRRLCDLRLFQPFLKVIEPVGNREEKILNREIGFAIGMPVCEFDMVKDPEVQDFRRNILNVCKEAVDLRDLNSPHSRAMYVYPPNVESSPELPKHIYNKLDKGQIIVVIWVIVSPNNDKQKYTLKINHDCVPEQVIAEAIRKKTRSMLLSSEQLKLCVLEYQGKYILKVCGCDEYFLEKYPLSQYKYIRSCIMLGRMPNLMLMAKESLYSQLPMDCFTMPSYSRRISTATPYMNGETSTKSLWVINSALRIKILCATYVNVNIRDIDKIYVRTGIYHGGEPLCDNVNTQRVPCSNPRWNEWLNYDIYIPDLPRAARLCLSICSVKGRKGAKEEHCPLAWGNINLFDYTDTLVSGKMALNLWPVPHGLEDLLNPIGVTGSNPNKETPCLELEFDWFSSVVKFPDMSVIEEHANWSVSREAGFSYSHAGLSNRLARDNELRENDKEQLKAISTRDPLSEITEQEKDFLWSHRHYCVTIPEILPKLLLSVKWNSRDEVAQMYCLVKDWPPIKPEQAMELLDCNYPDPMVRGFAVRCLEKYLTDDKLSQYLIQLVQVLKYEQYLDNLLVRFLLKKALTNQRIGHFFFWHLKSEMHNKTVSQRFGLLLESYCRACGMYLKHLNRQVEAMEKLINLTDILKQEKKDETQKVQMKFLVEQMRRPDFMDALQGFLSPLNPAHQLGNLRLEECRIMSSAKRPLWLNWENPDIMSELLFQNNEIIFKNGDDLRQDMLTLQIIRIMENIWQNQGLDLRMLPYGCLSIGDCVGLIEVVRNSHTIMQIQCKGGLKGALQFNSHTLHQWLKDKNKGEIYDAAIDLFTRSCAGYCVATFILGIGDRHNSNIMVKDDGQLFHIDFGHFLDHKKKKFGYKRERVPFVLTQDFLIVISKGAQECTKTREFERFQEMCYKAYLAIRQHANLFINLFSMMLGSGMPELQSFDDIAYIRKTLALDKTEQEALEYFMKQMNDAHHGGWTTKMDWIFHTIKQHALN
# PROTOCOL_DESCRIPTION: PI3K alfa enzymatic assay (Kinase-Glo luminescence)
# CONDITION_DESCRIPTION: Enzymatic Data
Strictly below 100 nM in IC50: true (1). Otherwise: false (0).

Consider the following illustrative entries.
>  <COMPOUND_STRUCTURE>
COc1cccc(NC(=O)NCCOc2ccc(-c3ccc4nc(C)c(-c5cnc(N)c(C(F)(F)F)c5)n4n3)cc2OC)c1

>  <LABEL_VALUE>
false (0)

$$$$
>  <COMPOUND_STRUCTURE>
COc1cc(-c2ccc3nc(C)c(-c4cnc(N)c(C(F)(F)F)c4)n3n2)ccc1OCCCNC(=O)C(C)C

>  <LABEL_VALUE>
true (1)

$$$$
>  <COMPOUND_STRUCTURE>
Cc1nc2ccc(-c3ccc(S(C)(=O)=O)cc3)nn2c1-c1cncc(C#N)c1

>  <LABEL_VALUE>
false (0)

$$$$
>  <COMPOUND_STRUCTURE>
COc1cccc(NC(=O)NCCCOc2cc(-c3ccc4nc(C)c(-c5cnc(N)c(C(F)(F)F)c5)n4n3)ccc2OC)c1

>  <LABEL_VALUE>
false (0)

$$$$
>  <COMPOUND_STRUCTURE>
COc1cc(-c2ccc3nc(C)c(-c4cnc(N)c(C(F)(F)F)c4)n3n2)ccc1OCCCN1CCNC1=O

>  <LABEL_VALUE>
true (1)

$$$$

hey, is IC50 for "COc1cc(-c2ccc3nc(C)c(-c4cnc(N)c(C(F)(F)F)c4)n3n2)ccc1OCCN(CC(=O)N(C)C)CC(=O)N(C)C" lower than 100 nM or not?
true (1)

###

# ASSAY_SYSTEM: PI3K delta (Homo sapiens, UniProt O00329)
# Construct: for the full-length p110-d subunit are generated and fused by overlapping PCR; p85(iSH2) fusion partner (same polypeptide; see partner chain) (N); Gly linker (N); His tag (C); Tn5 (Trichoplusia ni) or TiniPro insect cells
# Sequence (O00329 with tags, fused parts or gaps limits assumed): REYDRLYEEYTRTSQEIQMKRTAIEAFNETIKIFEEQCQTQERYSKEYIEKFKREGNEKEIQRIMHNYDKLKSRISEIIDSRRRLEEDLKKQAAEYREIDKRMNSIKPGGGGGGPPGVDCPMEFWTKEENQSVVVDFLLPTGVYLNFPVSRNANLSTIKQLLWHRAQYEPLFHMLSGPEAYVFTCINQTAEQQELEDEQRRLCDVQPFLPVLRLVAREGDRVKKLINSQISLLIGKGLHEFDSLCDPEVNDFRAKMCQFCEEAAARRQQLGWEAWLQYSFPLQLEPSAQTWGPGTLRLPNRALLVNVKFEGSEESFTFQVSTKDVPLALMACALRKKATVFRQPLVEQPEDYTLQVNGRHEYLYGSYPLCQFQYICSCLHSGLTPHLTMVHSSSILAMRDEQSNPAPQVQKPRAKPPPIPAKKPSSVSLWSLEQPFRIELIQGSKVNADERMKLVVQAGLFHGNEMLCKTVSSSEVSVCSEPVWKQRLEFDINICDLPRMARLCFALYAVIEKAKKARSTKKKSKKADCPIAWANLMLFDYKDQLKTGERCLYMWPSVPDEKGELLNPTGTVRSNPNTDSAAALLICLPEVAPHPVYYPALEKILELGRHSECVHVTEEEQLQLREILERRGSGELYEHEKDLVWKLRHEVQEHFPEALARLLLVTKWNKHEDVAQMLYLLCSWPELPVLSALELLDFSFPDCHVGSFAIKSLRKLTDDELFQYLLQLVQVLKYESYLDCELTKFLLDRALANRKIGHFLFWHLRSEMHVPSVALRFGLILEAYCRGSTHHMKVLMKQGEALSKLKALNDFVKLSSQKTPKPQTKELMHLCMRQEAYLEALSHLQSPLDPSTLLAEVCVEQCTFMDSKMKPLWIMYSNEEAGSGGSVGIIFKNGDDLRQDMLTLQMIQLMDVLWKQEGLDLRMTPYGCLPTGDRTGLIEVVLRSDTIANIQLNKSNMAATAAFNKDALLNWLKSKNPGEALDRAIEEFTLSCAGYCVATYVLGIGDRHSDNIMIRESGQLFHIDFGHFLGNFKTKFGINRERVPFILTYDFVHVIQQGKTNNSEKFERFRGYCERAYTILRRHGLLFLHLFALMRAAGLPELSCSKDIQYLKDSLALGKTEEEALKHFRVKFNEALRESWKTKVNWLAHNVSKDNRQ
# PROTOCOL_DESCRIPTION: PI3K delta enzymatic assay (Kinase-Glo luminescence)
# CONDITION_DESCRIPTION: Enzymatic Data
Sorting guide: entries reporting IC50 beneath 0.5 µM go in the y pile, the rest go in the n pile.

>  <COMPOUND>
COc1cc(-c2ccc3nc(C)c(-c4cnc(N)c(C(F)(F)F)c4)n3n2)ccc1OCCNC(=O)c1ccncc1 [Example 29]

>  <LABEL_VALUE>
n

$$$$
>  <COMPOUND>
COc1cc(-c2ccc3nc(C)c(-c4ccc(S(C)(=O)=O)cc4)n3n2)ccc1OC1CCN(C(=O)OC(C)(C)C)CC1 [Example 98]

>  <LABEL_VALUE>
n

$$$$
>  <COMPOUND>
COc1ccc(-c2ccc3nc(C)c(-c4cnccn4)n3n2)cc1OC [Example 17]

>  <LABEL_VALUE>
n

$$$$
>  <COMPOUND>
COC(=O)NC1(COc2ccc(-c3ccc4nc(C)c(-c5cnc(N)c(C(F)(F)F)c5)n4n3)cc2)COC1 [Example 115]

>  <LABEL_VALUE>
n

$$$$

Decide: IC50 of COc1ccc(-c2ccc3nc(C)c(-c4ccc(C#N)nc4)n3n2)cc1OC [Example 4] strictly below 0.5 µM?
y

Note, next up: COc1ccc(-c2ccc3nc(C)c(-c4ccnc(-n5ccnc5)n4)n3n2)cc1OC [Example 83]
y

Also need CCS(=O)(=O)c1ccc(-c2c(C)nc3ccc(-c4ccc(OC5CCNCC5)c(OC)c4)nn23)cc1 [Example 102] , thanks.
n

###

# ASSAY_SYSTEM: PI3K delta (Homo sapiens, UniProt O00329)
# Construct: for the full-length p110-d subunit are generated and fused by overlapping PCR; p85(iSH2) fusion partner (same polypeptide; see partner chain) (N); Gly linker (N); His tag (C); Tn5 (Trichoplusia ni) or TiniPro insect cells
# PROTOCOL_DESCRIPTION: PI3K delta enzymatic assay (Kinase-Glo luminescence)
# CONDITION_DESCRIPTION: Enzymatic Data
# note: exactly 2000 nM is not below, so it is Not satisfied; use Satisfied for IC50 strictly under it

// below: answered molecules
>  <COMPOUND_STRUCTURE>
COc1cc(-c2ccc3nc(C)c(-c4cnc(N)c(C(F)(F)F)c4)n3n2)ccc1OCCNC(=O)c1cccc(C#N)c1

>  <LABEL_VALUE>
Not satisfied

$$$$
>  <COMPOUND_STRUCTURE>
COc1ccc(-c2ccc3nc(C)c(-c4cncc(C#N)c4)n3n2)cc1OC

>  <LABEL_VALUE>
Not satisfied

$$$$

Below 2000 nM on IC50? Entry "Cc1nc2ccc(-c3ccc(OCC4(NC(=O)C5CC5)COC4)cc3)nn2c1-c1cnc(N)c(C(F)(F)F)c1"
Satisfied

Also need "Cc1nc2ccc(-c3ccc(OCC4(N)COC4)cc3)nn2c1-c1cnc(N)c(C(F)(F)F)c1" , thanks.
Satisfied

Item: "COc1cc(-c2ccc3nc(C)c(-c4cnc(N)c(C(F)(F)F)c4)n3n2)ccc1OC1CCN(C(=O)OC(C)(C)C)CC1"
Not satisfied

Could you do the same for "COc1cc(-c2ccc3nc(C)c(-c4cnc(N)c(C(F)(F)F)c4)n3n2)ccc1OCCN(CC(=O)N(C)C)CC(=O)N(C)C" , please?
Satisfied

###

# ASSAY_SYSTEM: PI3K delta (Homo sapiens, UniProt O00329)
# Construct: for the full-length p110-d subunit are generated and fused by overlapping PCR; p85(iSH2) fusion partner (same polypeptide; see partner chain) (N); Gly linker (N); His tag (C); Tn5 (Trichoplusia ni) or TiniPro insect cells
# PROTOCOL_DESCRIPTION: PI3K delta enzymatic assay (Kinase-Glo luminescence)
# CONDITION_DESCRIPTION: Enzymatic Data
MEASURED_PROPERTY: IC50 (nM)
Could you give me the number in nM? Just the number is fine.

Some compounds with known IC50 results, for comparison:
>  <COMPOUND_STRUCTURE>
Cc1nc2ccc(-c3ccc(OCC4(NC(=O)C(F)(F)F)COC4)cc3)nn2c1-c1cnc(N)c(C(F)(F)F)c1

>  <READOUT_UNITS>
nM

>  <IC50>
937

$$$$
>  <COMPOUND_STRUCTURE>
COc1cc(-c2ccc3nc(C)c(-c4cnc(N)c(C(F)(F)F)c4)n3n2)ccc1OCCCNC(=O)OC(C)C

>  <READOUT_UNITS>
nM

>  <IC50>
2700

$$$$
>  <COMPOUND_STRUCTURE>
Cc1nc2ccc(-c3ccc4c(c3)OCO4)nn2c1-c1cnc(N)c(C(F)(F)F)c1

>  <READOUT_UNITS>
nM

>  <IC50>
2270

$$$$
>  <COMPOUND_STRUCTURE>
COc1cc(-c2ccc3nc(C)c(-c4cnc(N)c(C(F)(F)F)c4)n3n2)ccc1OCCCNC(=O)C(F)(F)F

>  <READOUT_UNITS>
nM

>  <IC50>
3490

$$$$
>  <COMPOUND_STRUCTURE>
COc1ccc(-c2ccc3nc(C)c(-c4ccnc(NCc5ccccc5)n4)n3n2)cc1OC

>  <READOUT_UNITS>
nM

>  <IC50>
4000

$$$$

What value of IC50 has been recorded for this entry: "COc1cc(-c2ccc3nc(C)c(-c4ccc(S(C)(=O)=O)cc4)n3n2)ccc1OC1CCNCC1"
1180

Request: "COc1ccc(-c2ccc3nc(C)c(-c4ccc(O)nc4)n3n2)cc1OC"
456

Query "COc1cc(-c2ccc3nc(C)c(-c4cnc(N)c(C(F)(F)F)c4)n3n2)ccc1OCCCN1CCNC1=O" next
424

Would you kindly repeat that for "COc1ccc(-c2ccc3nc(C)c(-c4cnc(N)c(C(F)(F)F)c4)n3n2)cc1OC" ?
69
